Hey, just so you know, these numbers are from patent US11084976B2.

# assay-overview: Solubility of PMIDA in water and HCl (saturation concentrations)
# Format: physicochemical
# test-parameters: water, 93.3 °C, thermodynamic from solid, 200 psi, H2O, 200° F.
# Source text: In certain embodiments, the organic compound comprising a phosphonoalkyl moiety is at least partially solubilized in the organic or mineral acid. […]
endpoint-name: solubility thermodynamic (mg/mL)

O=C(O)CN(CC(=O)O)CP(=O)(O)O [PMIDA, N-(phosphonomethyl)iminodiacetic acid] : 51.1

* * *

# assay-overview: Solubility of PMIDA in water and HCl (saturation concentrations)
# Type: physicochemical
# test-parameters: water, 65.6 °C, thermodynamic from solid, 200 psi, H2O, 150° F.
endpoint-name: solubility thermodynamic

O=C(O)CN(CC(=O)O)CP(=O)(O)O : 28.7 mg/mL
